Catalogue of MIC readings, one per entry.
System: Staphylococcus aureus
ASSAY NOTES: Antibacterial activity against methicillin-sensitive Staphylococcus aureus ATCC 13150 after 20 hrs by microdilution assay
Assay type: functional
EXPERIMENTAL PARAMETERS: Staphylococcus aureus, ATCC 13150, 20 h; read-out: MIC

                         compound_structure  assay_endpoint    result
0  CCN1CCC(c2cc(C(=O)/C=C/c3ccccc3Cl)c(OC)cc2OC)CC1             MIC  > 100 µM
1  COc1cc(OC)c(C2CCN(C)CC2)c(O)c1C(=O)/C=C/c1ccccc1             MIC  > 100 µM

Next item in the queue.
// MIC lookup, key: COc1cc(OC)c(C2CCN(C)CC2)cc1C(=O)/C=C/c1ccccc1C > 100 µM
